Attribution: patent US10428140B2

// ka lookup, one value per entry
# test.target: T1, human EphA4 (Homo sapiens, UniProt P54764)
# T1 construct: made in house; not restated for the human SEAP-His protein
# T1 sequence (P54764 20-547): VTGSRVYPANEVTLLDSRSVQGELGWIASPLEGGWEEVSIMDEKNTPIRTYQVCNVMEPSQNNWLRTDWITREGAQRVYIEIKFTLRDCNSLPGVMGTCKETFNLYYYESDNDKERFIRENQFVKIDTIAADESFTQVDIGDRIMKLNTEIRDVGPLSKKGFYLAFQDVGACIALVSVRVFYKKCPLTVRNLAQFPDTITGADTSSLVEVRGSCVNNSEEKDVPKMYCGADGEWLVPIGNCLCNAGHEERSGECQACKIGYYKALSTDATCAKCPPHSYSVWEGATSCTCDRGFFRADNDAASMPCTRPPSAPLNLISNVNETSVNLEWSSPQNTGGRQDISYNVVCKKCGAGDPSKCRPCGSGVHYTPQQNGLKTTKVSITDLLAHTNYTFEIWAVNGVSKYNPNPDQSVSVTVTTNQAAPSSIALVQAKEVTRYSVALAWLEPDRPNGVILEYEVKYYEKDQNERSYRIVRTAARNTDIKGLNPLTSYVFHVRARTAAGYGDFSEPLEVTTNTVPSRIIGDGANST
# assay.remarks: Affinity of humanized antibodies by SPR (Biacore T200)
# Format: binding
# condition.notes: human EphA4 extracellular region-SEAP-His; 1:1 binding model
endpoint: ka (M⁻¹ s⁻¹)

molecule: 153 (antibody, V domains shown, synthetic humanized antibody heavy chain variable region sequence; synthetic humanized antibody light chain variable region sequence) VH: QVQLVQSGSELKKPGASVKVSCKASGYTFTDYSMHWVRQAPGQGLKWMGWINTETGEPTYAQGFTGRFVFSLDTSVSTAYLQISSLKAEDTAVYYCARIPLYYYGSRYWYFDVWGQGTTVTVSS VL: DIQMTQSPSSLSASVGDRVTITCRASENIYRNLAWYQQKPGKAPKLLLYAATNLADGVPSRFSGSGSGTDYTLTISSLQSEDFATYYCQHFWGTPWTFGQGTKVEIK
observed.measurement: 290000

molecule: 92 (antibody, V domains shown, constant regions without entry; synthetic humanized antibody light chain variable region sequence; synthetic humanized antibody heavy chain variable region sequence) VL: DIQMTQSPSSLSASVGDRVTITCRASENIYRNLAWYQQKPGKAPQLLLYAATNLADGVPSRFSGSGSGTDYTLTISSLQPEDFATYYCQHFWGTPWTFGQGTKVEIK VH: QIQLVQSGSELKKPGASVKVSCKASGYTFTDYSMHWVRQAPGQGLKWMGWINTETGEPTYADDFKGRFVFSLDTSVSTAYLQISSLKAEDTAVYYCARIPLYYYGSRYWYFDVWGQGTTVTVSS
observed.measurement: 330000

molecule: 151 (antibody, V domains shown, synthetic humanized antibody heavy chain variable region sequence; synthetic humanized antibody light chain variable region sequence) VH: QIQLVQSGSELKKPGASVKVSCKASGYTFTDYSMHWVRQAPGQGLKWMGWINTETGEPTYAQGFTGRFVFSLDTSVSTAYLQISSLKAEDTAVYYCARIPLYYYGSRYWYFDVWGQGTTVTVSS VL: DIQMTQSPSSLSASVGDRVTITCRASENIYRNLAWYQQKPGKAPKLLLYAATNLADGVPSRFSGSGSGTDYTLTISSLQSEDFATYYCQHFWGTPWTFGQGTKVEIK
observed.measurement: 320000

molecule: 86 (antibody, V domains shown, constant regions without entry; synthetic humanized antibody light chain variable region sequence; synthetic humanized antibody heavy chain variable region sequence) VL: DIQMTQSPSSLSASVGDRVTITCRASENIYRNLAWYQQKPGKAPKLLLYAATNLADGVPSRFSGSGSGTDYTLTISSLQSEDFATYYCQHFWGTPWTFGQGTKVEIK VH: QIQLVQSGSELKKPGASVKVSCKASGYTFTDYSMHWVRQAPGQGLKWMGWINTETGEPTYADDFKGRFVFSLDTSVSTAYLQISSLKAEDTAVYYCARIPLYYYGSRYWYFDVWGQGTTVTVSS
observed.measurement: 310000

molecule: 87 (antibody, V domains shown, constant regions without entry; synthetic humanized antibody light chain variable region sequence; synthetic humanized antibody heavy chain variable region sequence) VL: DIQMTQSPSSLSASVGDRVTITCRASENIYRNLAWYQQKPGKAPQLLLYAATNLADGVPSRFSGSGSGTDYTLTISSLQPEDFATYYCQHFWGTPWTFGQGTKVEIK VH: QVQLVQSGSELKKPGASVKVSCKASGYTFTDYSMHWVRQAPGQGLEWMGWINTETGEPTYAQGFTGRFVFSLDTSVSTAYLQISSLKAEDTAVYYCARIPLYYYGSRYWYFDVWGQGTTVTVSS
observed.measurement: 350000

molecule: 78 (antibody, V domains shown, synthetic humanized antibody heavy chain variable region sequence; synthetic humanized antibody light chain variable region sequence) VH: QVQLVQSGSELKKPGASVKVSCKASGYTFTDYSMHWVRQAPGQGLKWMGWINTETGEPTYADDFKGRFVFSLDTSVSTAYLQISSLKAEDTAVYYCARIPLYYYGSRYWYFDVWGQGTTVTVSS VL: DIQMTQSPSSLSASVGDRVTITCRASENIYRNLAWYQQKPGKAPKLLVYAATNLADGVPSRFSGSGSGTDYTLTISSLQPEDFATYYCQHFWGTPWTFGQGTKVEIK
observed.measurement: 340000

molecule: 76 (antibody, V domains shown, synthetic humanized antibody heavy chain variable region sequence; synthetic humanized antibody light chain variable region sequence) VH: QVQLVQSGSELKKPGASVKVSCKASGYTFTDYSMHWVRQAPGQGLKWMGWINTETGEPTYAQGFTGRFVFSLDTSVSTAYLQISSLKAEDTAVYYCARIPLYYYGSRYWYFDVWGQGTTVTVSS VL: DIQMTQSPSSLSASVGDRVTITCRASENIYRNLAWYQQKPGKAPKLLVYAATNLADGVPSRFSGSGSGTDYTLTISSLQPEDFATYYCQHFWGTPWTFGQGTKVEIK
observed.measurement: 330000
